B1: CPEB3 Ribozyme (parent)
chain: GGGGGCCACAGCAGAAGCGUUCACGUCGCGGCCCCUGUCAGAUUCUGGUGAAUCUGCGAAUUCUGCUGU

Variants of: B1
Assay: self-cleavage, relative activity (ratio to wild type); higher = more cleavage; co-transcriptional

{"columns": ["mutation annotation", "self-cleavage"],
 "data": [
  ["G37U G41U", 0.201],
  ["A10U U43A", 0.941],
  ["G30A C35G", 0.186],
  ["G4U G37U", 0.128],
  ["A10U A51U", 1.04],
  ["G1C U69C", 0.396],
  ["C18U C34U", 0.919],
  ["C7U C32U", 0.984],
  ["G11A G19A", 0.103],
  ["C33A U62C", 0.584],
  ["G58A G65C", 0.619],
  ["G3A U46A", 0.67],
  ["G19A G37A", 0.142],
  ["C6A G17A", 0.131],
  ["G5A U36C", 0.831],
  ["U20C C27A", 0.17],
  ["C12G U49A", 0.934],
  ["G28U G48C", 0.169],
  ["A16U A23C", 0.701],
  ["A13C G19C", 0.107],
  ["A60U C66A", 0.403],
  ["C27A G48U", 0.706],
  ["G11A U26C", 0.863],
  ["C33G A42G", 0.522],
  ["G1A A16U", 0.0347],
  ["G30A C66A", 0.559],
  ["U61G U62A", 0.871],
  ["C6A C34G", 0.144],
  ["G1U C27U", 0.0539],
  ["G19U U55G", 0.127],
  ["G14C U69A", 0.769],
  ["U55A U61C", 0.445],
  ["G19U C27U", 0.158],
  ["A16G A51U", 0.914],
  ["A51U A52U", 0.96],
  ["A15G G50C", 0.956],
  ["C27U G56U", 0.197],
  ["A15C G65U", 0.411],
  ["G4C A52U", 0.603],
  ["C32U G41C", 0.858],
  ["C12U G56U", 0.802],
  ["A23G A42C", 0.911]
]}
